This section presents molecules with their documented % Aggregation (Fluorescence method) values.
Target: recombinant Val122Ile TTR (Homo sapiens, UniProt P02766, V142I)
Construct: the non-covalently associated protomers, of mass 13,761, each contain 127 residues; His6 (N); TEV cleavage site (N); made in house; host or cells: E. coli BL21 (DE3)
Experiment: Mechano-enzymatic fibrillogenesis, TTR amyloid by ThT emission fluorescence
Assay type: biochemical
Conditions: equimolar ligand, 96 h pellets, normalized to 100 % without ligand, mean (SD)

Molecule: O=C(O)CCc1cc(Cl)c(OCCCOCCOc2c(Cl)cc(Nc3ccncc3C(=O)O)cc2Cl)c(Cl)c1 [Compound B27]
Measured property: % Aggregation (Fluorescence method)
Endpoint value: 12.0 (1.06) %

So what's the measured % Aggregation (Fluorescence method) for this one? O=C(O)CCc1cc(Cl)c(OCC/C=C/CCOc2c(Cl)cc(Nc3ncccc3C(=O)O)cc2Cl)c(Cl)c1 [Compound B13]
9.76 (4.50) %

----------
Molecular target: isolated wild type TTR (Homo sapiens)
Construct: the non-covalently associated protomers, of mass 13,761, each contain 127 residues; His6 (N); TEV cleavage site (N)
Experiment: Displacement of 125I-T4 from isolated wild type TTR in buffer
Conditions: concentration of ligand reducing binding of 125I-T4 by TTR by 50%; 125 nM TTR, pH 8.0, overnight 4° C.; mean of at least 3 replicates; read-out: D50 buffer
pIC50: −log10 of the molar value.
Measured property: pIC50

Here's what some known entries look like.
Structure as smiles: O=C(O)CCc1ccc(OCC[C@@H](O)[C@H](O)CCOc2c(Cl)cc(Nc3ccccc3C(=O)O)cc2Cl)c(Cl)c1
Endpoint value: 7.15

Structure as smiles: O=C(O)CCc1cc(Cl)c(OCC[C@@H](O)[C@H](O)CCOc2c(Cl)cc(Nc3ccccc3C(=O)O)cc2Cl)c(Cl)c1
Endpoint value: 7.18

Structure as smiles: O=C(O)CCc1cc(Cl)c(OCC[C@@H](O)[C@H](O)CCOc2c(Cl)cc(-c3nc4ccc(C(=O)O)cc4o3)cc2Cl)c(Cl)c1
Endpoint value: 7.05

Structure as smiles: O=C(O)CCc1cc(Cl)c(OCCCOCCCOc2ccc(-c3nc4ccc(C(=O)O)cc4o3)cc2Cl)c(Cl)c1
Endpoint value: 7.00

Structure as smiles: O=C(O)CCc1cc(Cl)c(OCCCOCCOc2c(Cl)cc(Nc3cnncc3C(=O)O)cc2Cl)c(Cl)c1
Endpoint value: 6.85

I: CCc1oc(-c2cc(Cl)c(OCC[C@@H](O)[C@H](O)CCOc3c(Cl)cc(CCC(=O)O)cc3Cl)c(Cl)c2)nc1C(=O)O
II: Cc1n[nH]c(COCCCOCCCOc2c(Cl)cc(CCC(=O)O)cc2Cl)c1CCCOc1cc(C(=O)O)ccc1F
III: Cc1n[nH]c(COCCOCCCOc2c(Cl)cc(CCC(=O)O)cc2Cl)c1CCCOc1cc(C(=O)O)ccc1F
IV: O=C(O)CCc1ccc(OCCCOCCCOc2ccc(-c3nc4ccc(C(=O)O)cc4o3)cc2Cl)c(Cl)c1
Output the entries ranked by pIC50 from maximum down to minimum. The reply should contain the labels ordered as requested.
I, IV, III, II
(I: 6.96, IV: 6.68, III: 6.30, II: 5.87)

1: O=C(O)CCc1cc(Cl)c(OCC[C@H](O)[C@@H](O)CCOc2c(Cl)cc(Nc3ccccc3C(=O)O)cc2Cl)c(Cl)c1
2: O=C(O)CCc1cc(Cl)c(OCOCCCOc2c(Cl)cc(Nc3ccccc3C(=O)O)cc2Cl)c(Cl)c1
3: O=C(O)CCOCCCOCCCOCCCOc1c(Cl)cc(Nc2ccccc2C(=O)O)cc1Cl
4: O=C(O)CCc1ccc(OCCCOCCCOc2c(Cl)cc(-c3nc4ccc(C(=O)O)cc4o3)cc2Cl)c(Cl)c1
Put the items in sequence by pIC50, from largest down. Reply format: the labels, ordered as requested.
1, 4, 3, 2

----------
Target: TTR in whole human plasma (Homo sapiens, UniProt P02766)
Construct: TTR in whole plasma, from individuals homozygous for wild type TTR
Test: Displacement of 125I-T4 from TTR in normal human plasma
Conditions: wild type TTR, 30 min 37° C. with ligand, immunoprecipitation, mean of at least 3 replicates, read-out: D50 plasma
pIC50: −log10 of the molar value.
Measured property: pIC50

Structure as smiles: O=C(O)CCc1cc(Cl)c(OCCCOCCOc2c(Cl)cc(Nc3cnncc3C(=O)O)cc2Cl)c(Cl)c1
pIC50: 5.12
//
Structure as smiles: O=C(O)CCc1ccc(OCC[C@@H](O)[C@H](O)CCOc2ccc(Nc3ccccc3C(=O)O)cc2Cl)c(Cl)c1
pIC50: 5.19

1: O=C(O)CCc1cc(Cl)c(OCC[C@H](O)[C@@H](O)CCOc2c(Cl)cc(Nc3ccccc3C(=O)O)cc2Cl)c(Cl)c1
2: O=C(O)CCc1cc(Cl)c(OCCCOCCOc2c(Cl)cc(Nc3cnccc3C(=O)O)cc2Cl)c(Cl)c1
pIC50 comparison. Which is larger, 1 or 2 ? Could you answer with the label of the item you picked?
2
(2: 5.85, 1: 5.36)

----------
Target: recombinant Val122Ile TTR (Homo sapiens, UniProt P02766, V142I)
Construct: the non-covalently associated protomers, of mass 13,761, each contain 127 residues; His6 (N); TEV cleavage site (N); made in house; host or cells: E. coli BL21 (DE3)
Assay: Mechano-enzymatic fibrillogenesis, TTR amyloid by ThT emission fluorescence
Type: biochemical
Details: equimolar ligand, 96 h pellets, normalized to 100 % without ligand, mean (SD)
Experimental: Briefly, fibrillogenesis of recombinant Val122Ile TTR at 0.5 mg/ml (9 μM) in PBS, pH 7.4 was carried out in glass vials stirred at 1,400 rpm (IKA magnetic stirrer) and 37° C. in the presence and in the absence of trypsin (5 ng/μl). […] Aggregation of TTR in the presence of equimolar ligand concentrations was quantified as spectrophotometric turbidity at 400 nm as a proportion of 100% for aggregation of the protein in the absence of ligands (Table 2). […]
Measured property: % Aggregation (Fluorescence method)

Take a look at these entries with their results.
Compound: O=C(O)CCc1cc(Cl)c(OCC[C@@H](O)[C@H](O)CCOc2ccc(Nc3ccccc3C(=O)O)cc2Cl)c(Cl)c1 [Compound B20]
% Aggregation (Fluorescence method): 8.54 (6.10) %

Compound: O=C(O)CCc1cc(Cl)c(OCC[C@@H](O)[C@H](O)CCOc2c(Cl)cc(-c3nc4ccc(C(=O)O)cc4o3)cc2Cl)c(Cl)c1 [Compound B16]
% Aggregation (Fluorescence method): 4.76 (3.13) %

Compound: O=C(O)CCc1cc(Cl)c(OCCCOCCCOc2ccc(-c3nc4ccc(C(=O)O)cc4o3)cc2Cl)c(Cl)c1 [Compound B15]
% Aggregation (Fluorescence method): 12.7 (5.73) %

I am curious: what % Aggregation (Fluorescence method) value has been reported for O=C(O)CCc1cc(Cl)c(OCCCOCCOc2c(Cl)cc(Nc3cnncc3C(=O)O)cc2Cl)c(Cl)c1 [Compound B24] ?
10.6 (10.5) %

Please give the result for O=C(O)CCc1ccc(OCCCOCCCOc2ccc(-c3nc4ccc(C(=O)O)cc4o3)cc2Cl)c(Cl)c1 [Compound B18] too.
2.45 (1.39) %

Follow-up entry: O=C(O)CCc1cc(Cl)c(OCC[C@H](O)[C@@H](O)CCOc2c(Cl)cc(Nc3ncccc3C(=O)O)cc2Cl)c(Cl)c1 (stereo in doubt) [Compound B3A]
8.63 (5.17) %

----------
Assay: Rat oral pharmacokinetics
Conditions: in vivo, 5 mg/kg, 5 mpk
Measured property: Cmax (ng/mL)

Use the examples below as a reference point.
Structure as smiles: CCc1oc(-c2cc(Cl)c(OCC[C@@H](O)[C@H](O)CCOc3c(Cl)cc(CCC(=O)O)cc3Cl)c(Cl)c2)nc1C(=O)O
Unit tag: ng/mL
Cmax: 2580
--
Structure as smiles: O=C(O)CCc1cc(Cl)c(OCCCOCCOc2c(Cl)cc(Nc3ccncc3C(=O)O)cc2Cl)c(Cl)c1
Unit tag: ng/mL
Cmax: 316

P: O=C(O)CCc1cc(Cl)c(OCCCOCCOc2c(Cl)cc(Nc3ccnnc3C(=O)O)cc2Cl)c(Cl)c1
Q: O=C(O)CCc1cc(Cl)c(OCCCOCCOc2c(Cl)cc(Nc3cnccc3C(=O)O)cc2Cl)c(Cl)c1
Smaller Cmax value? Options are P and Q Refer to your chosen item by its label in the answer.
P

----------
Target: TTR in whole human plasma (Homo sapiens)
Construct: TTR in whole plasma, from individuals homozygous for wild type TTR
Test: Displacement of 125I-T4 from TTR in normal human plasma
Details: wild type TTR, 30 min 37° C. with ligand, immunoprecipitation, mean of at least 3 replicates, read-out: D50 plasma
Measured property: IC50 (µM)

Molecule: O=C(O)CCc1cc(Cl)c(OCCCOCCOc2c(Cl)cc(-c3nc4ccc(C(=O)O)cc4o3)cc2Cl)c(Cl)c1 [Compound B28]
Endpoint value: 20

I: O=C(O)CCc1cc(Cl)c(OCC[C@@H](O)[C@H](O)CCOc2ccc(-c3nc4ccc(C(=O)O)cc4o3)cc2Cl)c(Cl)c1 [Compound B17]
II: O=C(O)CCOCCCOCCCOCCCOc1c(Cl)cc(Nc2ccccc2C(=O)O)cc1Cl [Compound B6]
I would appreciate it if you could say which entry, I or II , has the lower IC50 value. I would appreciate it if you answered with the label of your choice.
I
